Tested on: SK-N-MC neuroepithelioma cells
assay-comment: MTT cellular proliferation assay, SK-N-MC
Type: cell-based, human
condition-context: Table 2; MTT assay, 90 h incubation; Mean ± SD, 4 experiments; read-out: IC50 Values of Chelators
Reported IC50 by item:
measurement-label: IC50 (µM)

molecule="O=C(NN=C(c1ccccn1)c1ccccn1)c1ccccc1 [PCBH, 2-pyridylketone benzoyl hydrazone]" recorded_measurement=46
molecule="O=C(NN=C(c1ccccn1)c1ccccn1)c1cccc(Br)c1 [PCBBH, 2-pyridylketone 3-bromobenzoyl hydrazone]" recorded_measurement=40
molecule="O=C(NN=C(c1ccccn1)c1ccccn1)c1cccc(Br)c1 [PKBBH]" recorded_measurement=1
molecule="O=C(NN=Cc1c(O)ccc2ccccc12)c1ccncc1 [compound 311]" recorded_measurement=3
molecule="O=C(NN=C(c1ccccn1)c1ccccn1)c1ccccc1 [PKBH, di-2-pyridylketone benzoyl hydrazone]" recorded_measurement=3

----------
Tested on: MRC-5 fibroblasts
assay-comment: MTT cellular proliferation assay, MRC-5 fibroblasts
Assay type: cell-based, human
condition-context: Homo sapiens, MRC5; Table 3; normal cells, 72 h, MTT; read-out: IC50 MRC-5 fibroblasts
pIC50: −log10 of the molar value.
measurement-label: pIC50

compound=CC(=O)N(O)CCCCCNC(=O)CCC(=O)N(O)CCCCCNC(=O)CCC(=O)N(O)CCCCCN measurement_label=pIC50 recorded_measurement="< 4.60"

----------
Tested on: SK-N-MC neuroepithelioma cells
assay-comment: MTT cellular proliferation assay, SK-N-MC
Format: cell-based, human
condition-context: Homo sapiens, SK-N-MC, 90 h, Table 2; MTT assay, 90 h incubation; Mean ± SD, 4 experiments; read-out: IC50 Values of Chelators
pIC50: −log10 of the molar value.
measurement-label: pIC50

compound=O=C(NN=Cc1ccc2ccccc2n1)c1ccc(O)cc1 inequality_symbol=< recorded_measurement=4.30
compound=O=C(NN=Cc1ccc2ccccc2n1)c1ccccc1 inequality_symbol== recorded_measurement=4.30
compound=CC(=O)N(O)CCCCCNC(=O)CCC(=O)N(O)CCCCCNC(=O)CCC(=O)N(O)CCCCCN inequality_symbol=< recorded_measurement=4.30
compound=O=C(NN=Cc1ccc2ccccc2n1)c1ccncc1 inequality_symbol== recorded_measurement=4.31
compound=O=C(NN=Cc1ccc2ccccc2n1)c1cccc(Br)c1 inequality_symbol== recorded_measurement=4.31
compound=Nc1ccc(C(=O)NN=Cc2ccc3ccccc3n2)cc1 inequality_symbol=< recorded_measurement=4.30

----------
Tested on: HEP G2 Hepatoma
assay-comment: MTT cellular proliferation assay, HEP G2
Format: cell-based
condition-context: Homo sapiens, HepG2, 0-50 μM, 72 h, 1 experiment
pIC50: −log10 of the molar value.
Entries and their pIC50 values follow.
measurement-label: pIC50

compound="CC(=O)N(O)CCCCCNC(=O)CCC(=O)N(O)CCCCCNC(=O)CCC(=O)N(O)CCCCCN [DFO, desferrioxamine]" recorded_measurement=4.73
compound="COc1cccc2c1C(=O)c1c(O)c3c(c(O)c1C2=O)C[C@@](O)(C(=O)CO)C[C@@H]3O[C@H]1C[C@H](N)[C@H](O)[C@H](C)O1 [Dox, doxorubicin]" recorded_measurement=5.58

----------
Test system: HEP G2 Hepatoma
assay-comment: MTT cellular proliferation assay, HEP G2
Format: cell-based
condition-context: 0-50 μM, 72 h, 1 experiment
pIC50: −log10 of the molar value.
Recorded pIC50 for the following compounds
measurement-label: pIC50

compound="O=C(NN=Cc1c(O)ccc2ccccc12)c1ccncc1 [compound 311]" measurement_label=pIC50 recorded_measurement=5.93
compound="CN(C)C(=S)NN=C(c1ccccn1)c1ccccn1 [Dp44mT]" measurement_label=pIC50 recorded_measurement=5.87

----------
assay-comment: Maximum tolerated dose in CD2F1 hybrid mice
Assay type: in vivo
condition-context: female, CD2F1, mouse, in vivo, iv
measurement-label: MTD at 2 weeks (mg/kg)

compound=NC(=S)NN=Cc1ncccc1N recorded_measurement=6

----------
System: SK-N-MC neuroepithelioma cells
assay-comment: MTT cellular proliferation assay, SK-N-MC
Assay type: cell-based, human
condition-context: Table 3; 0-25 μM, 72 h, MTT; mean ± SD; read-out: IC50 SK-N-MC neuroepithelioma
pIC50: −log10 of the molar value.
Entries and their measured pIC50 follow.
measurement-label: pIC50

compound="O=C(NN=Cc1c(O)ccc2ccccc12)c1ccncc1 [compound 311]" inequality_symbol== recorded_measurement=6.52
compound="CN(N=C(c1ccccn1)c1ccccn1)C(N)=S [Dp2mT]" inequality_symbol=< recorded_measurement=4.60
compound="O=C(NN=Cc1c(O)ccc2ccccc12)c1cccnc1 [311m]" inequality_symbol== recorded_measurement=6.10
compound="CN(C)C(=S)NN=C(c1ccccn1)c1ccccn1 [Dp44mT]" inequality_symbol== recorded_measurement=7.52
